# measurement.description: Cellular Toxicity (caspase-3) Mesangial (AID 660);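 further: combined caspase 3 and 7 activity read by Caspase-Glo luminescence; cells exposed to compound for 16 h before the caspase read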
# measurement.context: mesangial cells, normalized: DMSO 0%, 100 µM tamoxifen 100%; at 91.7 µM (top of the series)
outcome.measure: caspase-3 activation (%)
Give a bare numeral; the unit % is implied.

Reference set, count: 3
// query What measured caspase-3 activation goes with `c1ccsc1` ?
// result -0.223

// query What measured caspase-3 activation goes with `CCc1ccccc1` ?
// result -1.29

// query What measured caspase-3 activation goes with `O=C(O)c1ccccc1[N+](=O)[O-]` ?
// result 0.745

Would you kindly look at the next entry?
// query What measured caspase-3 activation goes with `Nc1c(Cl)cc(Cl)cc1Cl` ?
// result 0.75

* * *

Here, each record is paired with measured activation data.
# measurement.description: qHTS assay for environmental chemicals that activate the Aryl hydrocarbon Receptor (AhR) signaling pathway (AID 651777); further: % of control where 0% means no effect; nearly all actives have a fitted effect of over 15% in size
# measurement.context: 1A2-DRE human hepatoma cells, luciferase, 24 h; stronger effect = higher value
Results filed as inconclusive are left out.
Give a bare numeral; the unit % is implied.

Reference set, count: 3
// query What measured activation goes with `CCOc1cccc(N)c1` ?
// result 1.67

// query What measured activation goes with `ICCc1ccccc1` ?
// result 3.65

// query What measured activation goes with `O=C(Cl)c1ccccc1[N+](=O)[O-]` ?
// result 0.05

New cases:
// query What measured activation goes with `CC/C=C1/OC(=O)c2ccccc21` ?
// result 0.751

// query What measured activation goes with `C=CCCCC` ?
// result 0.475

// query What measured activation goes with `CC(=O)Nc1cccc(N)c1` ?
// result -0.0665

// query What measured activation goes with `O=C(O)CNC(=O)c1ccc([N+](=O)[O-])cc1` ?
// result 0.908

// query What measured activation goes with `FC(F)(F)c1ccccc1Cl` ?
// result -0.14

// query What measured activation goes with `C=CC(=O)NC(C)C` ?
// result -0.429

// query What measured activation goes with `C=C(C)C(=O)OCC(C)C` ?
// result -0.68

// query What measured activation goes with `C1CCCC1` ?
// result 0.0008

// query What measured activation goes with `O=C1OC(=O)c2cc([N+](=O)[O-])ccc21` ?
// result -0.234

// query What measured activation goes with `NC(=O)/N=N/C(N)=O` ?
// result -0.307

// query What measured activation goes with `NCCCCCCN` ?
// result 0.0666

// query What measured activation goes with `Nc1cccc([N+](=O)[O-])c1` ?
// result 0.683

// query What measured activation goes with `Cc1ccc([N+](=O)[O-])c(N)c1` ?
// result 0.147

// query What measured activation goes with `Oc1c(Cl)ccc(Cl)c1Cl` ?
// result -0.586

// query What measured activation goes with `C=Cc1ccccn1` ?
// result 0.147

// query What measured activation goes with `COC(=O)CS` ?
// result -0.254

// query What measured activation goes with `Cc1ccc(C)c(N)c1` ?
// result -0.892

// query What measured activation goes with CCCC(C)CO (stereo not drawn) ?
// result -0.17

// query What measured activation goes with `Cc1ccc(C#N)cc1` ?
// result 2.83

* * *

# measurement.description: qHTS assay for small molecule agonists of the antioxidant response element (ARE) signaling pathway (AID 651741); on activation: % of control where 0% means no effect
# measurement.context: HepG2 ARE-bla reporter, beta-lactamase FRET ratio, 16 h; series mostly up to 96 µM
Results filed as inconclusive are left out. Activity calls are given as the source filed them. Calls come from the whole dose curve; as a rule, active = well fitted activation curve with a large enough effect in the signal ratio; inconclusive = small, poorly fitted or top-dose-only effect, or effect the other way, or a change in a side signal; inactive = flat fitted curve, though single readings scatter; the % refers to the signal ratio.
Tick one outcome: t for active, f for inactive

// query Please indicate how the test categorized `O=Cc1c(Cl)cccc1Cl` .
// result f

New cases:
// query Please indicate how the test categorized CCCCC(C=O)CC (configuration not stated) .
// result f

// query Please indicate how the test categorized `CC(C)(O)C(=O)O` .
// result f

// query Please indicate how the test categorized CCCCC(CC)CO (configuration not stated) .
// result f

// query Please indicate how the test categorized `O=c1[nH][nH]c(=O)c2cc([N+](=O)[O-])ccc12` .
// result f

// query Please indicate how the test categorized CC(C)=C1CCC(C)CC1=O (configuration not stated) .
// result f

// query Please indicate how the test categorized `Cc1cccc2sc(N)nc12` .
// result t
